target-or-test-system: UniProt P80204
Sequence (whole entry): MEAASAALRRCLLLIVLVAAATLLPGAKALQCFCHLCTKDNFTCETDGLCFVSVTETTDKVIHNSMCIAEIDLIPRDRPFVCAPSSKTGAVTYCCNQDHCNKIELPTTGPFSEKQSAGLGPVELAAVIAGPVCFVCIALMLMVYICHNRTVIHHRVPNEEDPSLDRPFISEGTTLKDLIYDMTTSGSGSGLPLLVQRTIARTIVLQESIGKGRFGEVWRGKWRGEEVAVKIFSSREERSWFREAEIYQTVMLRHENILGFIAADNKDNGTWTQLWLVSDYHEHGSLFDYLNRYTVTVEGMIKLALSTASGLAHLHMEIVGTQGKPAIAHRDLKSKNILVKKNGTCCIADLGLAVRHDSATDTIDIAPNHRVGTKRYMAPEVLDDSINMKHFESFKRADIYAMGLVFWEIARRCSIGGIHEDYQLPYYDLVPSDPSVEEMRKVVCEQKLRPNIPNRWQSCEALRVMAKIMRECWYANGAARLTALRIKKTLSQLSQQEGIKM
procedure-details: Inhibition of TGFbeta1 receptor in TGFbeta1-stimulated Sprague-Dawley rat cardiac fibroblasts assessed as reduction in fibronectin expression at 50 uM measured after 12 hrs by Western blot analysis
Activity calls are given as the source filed them. No cut-off for these calls is given here.
Choose one outcome from this list and give only that: active, inactive

Solved entries (count: 3):
# line-notation, group
records = [
    ("C=C(C)[C@@H]1C/C=C(\\C)[C@H](OCC)CCC2=C[C@@H]1OC2=O", "active"),
    ("C=C(C)[C@@H]1C[C@@H](N2CCCCC2)/C(C)=C/CCC2=C[C@@H]1OC2=O", "inactive"),
    ("C=C(C)[C@@H]1C/C=C(\\C)[C@H](OC(=O)c2cc(C(F)(F)F)cc(C(F)(F)F)c2)CCC2=C[C@@H]1OC2=O", "active"),
]

Hey, what did the test say about C=C(C)[C@@H]1C/C=C(\C)[C@H](F)CCC2=C[C@@H]1OC2=O ?
active

Hey, what did the test say about C=C(C)[C@@H]1C/C=C(\C)[C@H](OC(C)=O)CCC2=C[C@@H]1OC2=O ?
active
